Molecular target: CDK1/CyclinB (h) (Homo sapiens, UniProt P06493)
Sequence (P06493 whole entry): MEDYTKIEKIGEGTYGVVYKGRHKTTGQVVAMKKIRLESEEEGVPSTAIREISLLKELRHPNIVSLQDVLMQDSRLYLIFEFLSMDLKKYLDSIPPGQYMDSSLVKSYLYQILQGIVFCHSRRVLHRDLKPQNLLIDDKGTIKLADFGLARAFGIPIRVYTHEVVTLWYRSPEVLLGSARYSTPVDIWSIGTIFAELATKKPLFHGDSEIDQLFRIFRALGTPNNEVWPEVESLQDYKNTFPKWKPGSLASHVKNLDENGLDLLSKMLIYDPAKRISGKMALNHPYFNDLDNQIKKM
Sequence (P14635 whole entry partner): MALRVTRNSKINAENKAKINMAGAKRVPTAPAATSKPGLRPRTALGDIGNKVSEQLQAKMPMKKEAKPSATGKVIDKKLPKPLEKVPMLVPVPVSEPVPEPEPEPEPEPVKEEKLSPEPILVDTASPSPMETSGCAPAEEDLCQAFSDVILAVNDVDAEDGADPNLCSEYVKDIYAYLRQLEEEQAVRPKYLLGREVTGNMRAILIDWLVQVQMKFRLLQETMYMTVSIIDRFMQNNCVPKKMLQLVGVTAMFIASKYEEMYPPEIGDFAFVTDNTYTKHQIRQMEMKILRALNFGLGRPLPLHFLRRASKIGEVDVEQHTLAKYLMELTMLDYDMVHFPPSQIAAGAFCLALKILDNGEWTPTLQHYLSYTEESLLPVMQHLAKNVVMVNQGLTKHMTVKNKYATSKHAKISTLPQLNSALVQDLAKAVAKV
Experiment: CDK1/CyclinB human kinase inhibition, Invitrogen's FRET assay (Z'lyte)
Type: biochemical
Settings: read-out: CDK1 pIC50 (converted)
READOUT: IC50

Problem: Complete the entry with IC50 for O=C1CN2CCN(CC2)Cc2cc(ccc2N2CCOCC2)Nc2nccc(n2)-c2ccc(cc2)CN1 [Compound 194]
Solution: > 10 µM

Problem: Specify reported IC50 for the molecule shown: O=C1CN2CCN(CC2)Cc2cc(ccc2N2CCOCC2)Nc2nccc(n2)-c2cccc(c2)CN1 [Compound 20]
Solution: > 10 µM

Problem: Fill in IC50 for record O=C1NCCCOc2cccc(c2)-c2ccnc(n2)Nc2ccc(N3CCOCC3)c(c2)CN2CCC[C@@H]12 [Compound 96]
Solution: > 10 µM

Problem: State its IC50 for this molecule: O=C1NCc2cccc(c2)-c2ccnc(n2)Nc2cc(CN3CCOCC3)cc(c2)CN2CCC[C@@H]12 [Compound 22]
Solution: 0.251 µM

Problem: Fill in IC50 for record O=C1NCc2cccc(c2)-c2ccnc(n2)Nc2cc(ccc2Cl)CN2CCC[C@@H]12 [Compound 51]
Solution: > 10 µM

Problem: Name the recorded IC50 of the molecule listed here: CN1CCNC(=O)[C@@H]2CCCN2Cc2cc(Br)cc(c2)Nc2nccc(n2)-c2ccc(cc2)C1 [Compound 155]
Solution: > 10 µM

Problem: Give the reported value of IC50 for this record: COc1cc2cc(c1)Nc1nccc(n1)-c1ccc(cc1)CN(C)CCNC(=O)CN1CCN(CC1)C2 [Compound 132]
Solution: > 10 µM

Problem: Entry CC(C)Nc1cc2cc(c1)Nc1nccc(n1)-c1ccc(cc1)CN(C)CCCNC(=O)C1CCN(CC1)C2 [Compound 65] needs its IC50 filled in; supply it.
Solution: > 10 µM

Problem: Please report IC50 for the following molecule: COc1cc2cc(c1)Nc1nccc(n1)-c1ccc(cc1)CN(C)CCNC(=O)[C@H](CO)NC2 [Compound 109]
Solution: > 10 µM

Problem: Check the records and state IC50 for O=C1CN2CCN(CC2)Cc2cc(ccc2N2CCOCC2)Nc2nccc(n2)-c2cccc(c2)OCCCN1 [Compound 103]
Solution: > 10 µM

Problem: Give a short answer stating reported IC50 for O=C1NCc2cccc(c2)-c2ccnc(n2)Nc2cc(ccc2Cl)CN2CCC1CC2 [Compound 123] .
Solution: 1.91 µM

Problem: For the molecule COc1ccc2cc1CN(C)CCNC(=O)C1CCN(CC1)Cc1cc(cc(NC(C)C)c1)Nc1nccc-2n1 [Compound 75] , give its measured IC50 value.
Solution: > 10 µM

Problem: Find the measured IC50 of O=C1NCc2cccc(c2)-c2ccnc(n2)Nc2ccc(N3CCOCC3)c(c2)CN2CCC1CC2 [Compound 95] and report it.
Solution: 7.24 µM

Problem: Give the reported value of IC50 for this record: COc1ccc2cc1CNCCNC(=O)C1CCN(CC1)Cc1cc(ccc1N1CCOCC1)Nc1nccc-2n1 [Compound 64]
Solution: > 10 µM

Problem: // fetch IC50 given entry CN1CCNC(=O)C2CCN(CC2)Cc2cc(cc(N3CCOCC3)c2)Nc2nccc(n2)-c2ccc(cc2)C1 [Compound 68]
Solution: > 10 µM

Problem: Determine from records and report IC50 for COc1ccc2cc1CNCCCNC(=O)C1CCN(CC1)Cc1cc(ccc1N1CCOCC1)Nc1nccc-2n1 [Compound 3]
Solution: > 10 µM

Problem: Using the record for COc1ccc2cc1CN(C)CCCNC(=O)[C@@H]1CCCN1Cc1cc(NCCc3ccccc3)cc(c1)Nc1nccc-2n1 [Compound 167] , state its measured IC50.
Solution: > 10 µM

Problem: Return the recorded IC50 value; entry: COc1cc2cc(c1OC)CN1CCC[C@H]1C(=O)N(C)CCN(C)c1cc(ccn1)-c1ccnc(n1)N2 [Compound 17]
Solution: 8.13 µM

Problem: Tell me IC50 reported for C[C@@H]1NCc2cccc(c2)-c2ccnc(n2)Nc2ccc(N3CCOCC3)c(c2)CNC1=O [Compound 101]
Solution: > 10 µM

Problem: Identify IC50 associated with the molecule CN1CCCNC(=O)[C@@H]2CCCN2Cc2cccc(c2)Nc2nccc(n2)-c2ccc(cc2)C1 [Compound 173]
Solution: > 10 µM

Problem: // Input: CN1CCNC(=O)C2CCN(CC2)Cc2cccc(c2)Nc2nccc(n2)-c2ccc(cc2)C1 [Compound 82] . Output its IC50 only.
Solution: > 10 µM

Problem: Supply IC50 value. Item: COc1ccc2cc1CN(C)CCCNC(=O)CN1CCN(CC1)Cc1cc(cc(NC(C)C)c1)Nc1nccc-2n1 [Compound 130]
Solution: 7.76 µM

Problem: Output IC50 of COc1cc2cc(c1)Nc1nccc(n1)-c1ccc(cc1)CN(C)CCCNC(=O)C1CCN(CC1)C2 [Compound 66]
Solution: > 10 µM

====

Target: UniProt Q96GD4
Sequence (Q96GD4 whole entry): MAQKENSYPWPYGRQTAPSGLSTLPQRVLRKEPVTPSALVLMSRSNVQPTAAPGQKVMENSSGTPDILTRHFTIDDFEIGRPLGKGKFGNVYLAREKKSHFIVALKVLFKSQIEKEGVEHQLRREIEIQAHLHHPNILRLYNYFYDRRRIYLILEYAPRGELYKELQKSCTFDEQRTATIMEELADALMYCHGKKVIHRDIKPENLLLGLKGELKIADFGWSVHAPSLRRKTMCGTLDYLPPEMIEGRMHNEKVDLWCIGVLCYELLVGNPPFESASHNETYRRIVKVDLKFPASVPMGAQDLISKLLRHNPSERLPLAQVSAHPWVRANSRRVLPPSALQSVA
Assay: Aurora-B human kinase inhibition, SPA
Format: biochemical
Conditions: read-out: AuroraB pIC50 (converted)
Provide the recorded IC50 for the entries that follow.

Problem: Could you please provide reported IC50 for COc1ccc2cc1CN(C)CCNC(=O)[C@@H]1CCCN1Cc1cc(C#N)cc(c1)Nc1nccc-2n1 [Compound 181] ? Thanks!
Solution: > 10 µM

Problem: Provide one value: measured IC50 of CN1CCNC(=O)CN2CCN(CC2)Cc2cc(Br)cc(c2)Nc2nccc(n2)-c2ccc(cc2)C1 [Compound 129]
Solution: > 10 µM

Problem: Specify IC50 for O=C1NCc2cc(ccc2N2CCOCC2)Nc2nccc(n2)-c2cccc(c2)CCCN2CCC[C@@H]12 [Compound 149] and stop.
Solution: 11 µM

Problem: // Input: COc1ccc2cc1CNCCNC(=O)CN1CCN(CC1)Cc1cc(ccc1N1CCOCC1)Nc1nccc-2n1 [Compound 126] . Output its IC50 only.
Solution: 8.71 µM

Problem: Name the recorded IC50 of the compound listed here: O=C1NCc2ccc(cc2)-c2ccnc(n2)Nc2ccc(N3CCOCC3)c(c2)CN2CCC[C@@H]12 [Compound 49]
Solution: > 10 µM

Problem: For the compound O=C(NC1CCOCC1)c1ccc2cc1CN1CCC[C@H]1C(=O)NCc1cccc(c1)-c1ccnc(n1)N2 [Compound 46] , give its reported IC50.
Solution: > 10 µM

Problem: Output IC50 of CN1CCNC(=O)[C@@H]2CCCN2Cc2cccc(c2)Nc2nccc(n2)-c2ccc(cc2)C1 [Compound 160]
Solution: > 10 µM

Problem: Look up and state reported IC50 for O=C1NCCNCc2ccc(cc2)-c2ccnc(n2)Nc2ccc(N3CCOCC3)c(c2)CN2CCC1CC2 [Compound 71]
Solution: > 10 µM

Problem: Identify measured IC50 corresponding to O=C1NCc2cccc(c2)-c2ccnc(n2)Nc2cccc(c2)CN2CCC[C@@H]12 [Compound 53]
Solution: > 10 µM

Problem: Specify measured IC50 for CN1CCN(C(=O)c2cc3cc(c2)Nc2nccc(n2)-c2cccc(c2)CNC(=O)[C@@H]2CCCN2C3)CC1 [Compound 34] .
Solution: > 10 µM

====

Hi there, I'd appreciate the recorded pIC50 for every entry that follows.
Tested on: HCT-116
Assay: Cellular proliferation assay (Alamar blue), HCT-116
Assay type: cell-based
Conditions: Homo sapiens, 10% FCS, 72 hours with compound, Alamar blue 4 h
pIC50: −log10 of the molar value.

Problem: Dear colleague, please send me the reported pIC50 for O=C1NCCCNCc2ccc(cc2)-c2ccnc(n2)Nc2ccc(N3CCOCC3)c(c2)CN2CCC[C@@H]12 [Compound 172] when you can.
Solution: < 5.00

Problem: Return the recorded pIC50 value; entry: COc1cc2cc(c1)Nc1nccc(n1)-c1ccc(OC)c(c1)CN(C)CCNC(=O)C1CCN(CC1)C2 [Compound 67]
Solution: < 5.00

Problem: Provide one value: measured pIC50 of C[C@@H]1NCc2ccc(Cl)c(c2)Nc2nccc(n2)-c2cccc(c2)CNC1=O [Compound 186]
Solution: < 5.00

====

For each record, write down the corresponding IC50.
Biological target: PLK4 (h) (Homo sapiens, UniProt O00444)
Sequence (O00444 whole entry): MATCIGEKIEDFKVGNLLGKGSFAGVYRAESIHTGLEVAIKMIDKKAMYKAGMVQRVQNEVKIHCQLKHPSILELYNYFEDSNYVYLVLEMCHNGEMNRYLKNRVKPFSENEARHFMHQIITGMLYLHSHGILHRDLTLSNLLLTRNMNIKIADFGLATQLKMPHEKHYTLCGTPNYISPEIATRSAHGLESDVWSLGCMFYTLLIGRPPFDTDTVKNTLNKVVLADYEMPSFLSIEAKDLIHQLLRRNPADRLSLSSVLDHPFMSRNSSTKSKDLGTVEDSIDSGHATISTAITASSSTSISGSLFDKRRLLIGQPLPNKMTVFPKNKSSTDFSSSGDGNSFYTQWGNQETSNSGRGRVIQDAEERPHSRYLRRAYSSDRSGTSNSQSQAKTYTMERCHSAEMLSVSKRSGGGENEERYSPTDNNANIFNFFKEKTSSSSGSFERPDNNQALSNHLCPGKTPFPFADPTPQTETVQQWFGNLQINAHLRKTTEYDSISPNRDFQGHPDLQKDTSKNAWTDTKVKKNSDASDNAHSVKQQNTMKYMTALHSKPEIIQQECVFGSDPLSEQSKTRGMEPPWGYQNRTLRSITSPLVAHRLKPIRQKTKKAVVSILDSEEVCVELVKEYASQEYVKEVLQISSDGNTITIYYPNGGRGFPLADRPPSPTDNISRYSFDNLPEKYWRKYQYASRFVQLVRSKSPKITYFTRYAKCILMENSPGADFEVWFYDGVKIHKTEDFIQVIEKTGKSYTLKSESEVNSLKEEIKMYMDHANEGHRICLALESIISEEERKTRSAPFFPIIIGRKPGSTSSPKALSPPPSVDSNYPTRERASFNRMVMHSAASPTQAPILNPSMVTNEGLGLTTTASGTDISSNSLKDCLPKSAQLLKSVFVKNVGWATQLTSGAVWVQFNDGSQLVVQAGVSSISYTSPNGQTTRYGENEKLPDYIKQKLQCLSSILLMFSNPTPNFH
Test: PLK-4 human kinase inhibition, scintillation proximity assay (SPA)
Format: biochemical
Conditions: read-out: PLK4 pIC50 (converted)

Problem: Param request: IC50 | system PLK4 (h) (Homo sapiens, UniProt O00444) | item COc1ccc2cc1CN(C)CCNC(=O)CN1CCN(CC1)Cc1cccc(c1)Nc1nccc-2n1 [Compound 147]
Solution: > 10 µM

Problem: Report value only: IC50, PLK4 (h) (Homo sapiens, UniProt O00444), O=C1NCc2cccc(c2)-c2ccnc(n2)Nc2cc(ccc2Cl)CN[C@H]1Cc1ccccc1 [Compound 189]
Solution: > 10 µM

Problem: Fill in IC50 for O=C1NCc2cccc(c2)-c2ccnc(n2)Nc2cc(ccc2Cl)CN2C[C@H](O)C[C@@H]12 [Compound 52] tested with PLK4 (h) (Homo sapiens, UniProt O00444).
Solution: > 10 µM
